# TEST_TARGET: S. aureus GyrB ATPase (Staphylococcus aureus, UniProt P0A0K8)
# Sequence (P0AES4 whole entry): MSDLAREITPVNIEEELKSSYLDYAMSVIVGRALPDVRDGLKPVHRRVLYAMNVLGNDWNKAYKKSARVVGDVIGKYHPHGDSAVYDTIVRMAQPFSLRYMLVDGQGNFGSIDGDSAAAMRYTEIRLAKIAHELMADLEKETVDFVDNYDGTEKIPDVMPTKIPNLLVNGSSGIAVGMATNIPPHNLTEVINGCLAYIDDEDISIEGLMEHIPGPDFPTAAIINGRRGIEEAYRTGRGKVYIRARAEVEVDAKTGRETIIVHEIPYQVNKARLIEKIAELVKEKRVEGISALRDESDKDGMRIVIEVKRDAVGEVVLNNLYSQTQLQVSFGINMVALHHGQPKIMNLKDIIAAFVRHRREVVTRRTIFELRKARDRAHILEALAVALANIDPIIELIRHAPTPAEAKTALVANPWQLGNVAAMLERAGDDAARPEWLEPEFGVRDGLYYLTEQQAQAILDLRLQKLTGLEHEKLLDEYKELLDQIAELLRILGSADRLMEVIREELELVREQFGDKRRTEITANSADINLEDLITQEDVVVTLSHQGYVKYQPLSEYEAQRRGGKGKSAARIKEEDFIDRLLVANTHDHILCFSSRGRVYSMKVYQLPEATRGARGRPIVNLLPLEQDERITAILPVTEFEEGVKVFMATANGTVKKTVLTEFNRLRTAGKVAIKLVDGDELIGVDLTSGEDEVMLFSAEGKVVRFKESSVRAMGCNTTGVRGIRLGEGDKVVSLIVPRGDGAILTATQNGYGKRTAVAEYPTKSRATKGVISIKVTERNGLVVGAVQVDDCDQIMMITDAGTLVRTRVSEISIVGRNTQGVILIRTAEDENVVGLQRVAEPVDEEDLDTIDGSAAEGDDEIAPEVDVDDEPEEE
# Sequence (P0A0K8 whole entry): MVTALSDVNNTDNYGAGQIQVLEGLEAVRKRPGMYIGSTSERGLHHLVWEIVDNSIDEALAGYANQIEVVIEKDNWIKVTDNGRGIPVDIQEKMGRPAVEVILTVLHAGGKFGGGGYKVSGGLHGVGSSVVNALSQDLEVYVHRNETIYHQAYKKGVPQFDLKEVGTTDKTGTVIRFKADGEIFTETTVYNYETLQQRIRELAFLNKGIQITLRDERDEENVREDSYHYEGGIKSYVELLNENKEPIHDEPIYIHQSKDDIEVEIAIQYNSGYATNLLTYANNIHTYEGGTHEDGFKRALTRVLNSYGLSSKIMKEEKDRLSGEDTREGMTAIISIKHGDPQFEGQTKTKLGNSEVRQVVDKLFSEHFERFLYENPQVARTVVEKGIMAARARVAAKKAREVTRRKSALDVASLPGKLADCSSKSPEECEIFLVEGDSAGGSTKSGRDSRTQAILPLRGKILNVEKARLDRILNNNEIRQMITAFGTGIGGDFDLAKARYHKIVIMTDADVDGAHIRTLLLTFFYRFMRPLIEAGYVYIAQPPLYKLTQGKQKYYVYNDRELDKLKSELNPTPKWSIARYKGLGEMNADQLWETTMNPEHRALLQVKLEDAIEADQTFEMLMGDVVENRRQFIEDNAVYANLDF
# TEST_NAME: S. aureus GyrB ATPase inhibition (ammonium molybdate/malachite green phosphate detection)
# Type: biochemical
# REPORTED_CONDITIONS: compound concentration of 1 μM
# Excerpt: S. aureus GyrB ATPase Inhibition Activity: Compounds may be tested for inhibition of S. aureus GyrB ATPase activity using an ammonium molybdate/malachite green-based phosphate detection assay (Lanzetta, P. A., L. J. Alvarez, P. S. Reinach, and O. A. Candia, 1979, 100: 95-97). […] An IC50 measurement of compound potency for each compound can be determined from reactions performed in the presence of 10 different compound concentrations. […]
We begin with a simple list: items and their reported inhibition at 1 µM.
EXPERIMENTAL_READOUT: inhibition at 1 µM (%)

[[record]]
smiles_str = "CCOC(=O)c1sc(N2CC[C@@H](NC(=O)c3[nH]c(C)c(Cl)c3Cl)[C@@H](F)C2)nc1-c1nc2ccccc2s1"
result_number = 93.9

[[record]]
smiles_str = "COCn1ccnc1-c1nc(N2CC[C@@H](NC(=O)c3[nH]c(C)c(Cl)c3Cl)[C@@H](OC)C2)sc1C(=O)O"
result_number = 97.7

[[record]]
smiles_str = "COCCn1ccnc1-c1nc(N2CC[C@@H](NC(=O)c3[nH]c(C)c(Cl)c3Cl)[C@@H](F)C2)sc1C(=O)OC"
result_number = 98.3

[[record]]
smiles_str = "CO[C@H]1CN(c2nc(-c3cc(N(C)C)nc(N(C)C)n3)c(C(=O)O)s2)CC[C@H]1NC(=O)c1[nH]c(C)c(Cl)c1Cl"
result_number = 102

[[record]]
smiles_str = "CCOC(=O)c1sc(N2CC[C@@H](NC(=O)c3[nH]c(C)c(Cl)c3C#N)[C@@H](OC)C2)nc1-c1cn(C)cn1"
result_number = 86.6

[[record]]
smiles_str = "Cc1[nH]c(C(=O)N[C@@H]2CCN(c3nc(-c4ccn[nH]4)c(C(=O)O)s3)C[C@@H]2F)c(Cl)c1Cl"
result_number = 65.9


Just for reference, patent US20080312255A1 is where these values come from.
